Biological target: T1, human IL-1RAcP on 293T/17-FR cells (human, UniProt Q9NPH3 21-570)
T1 sequence (looked up): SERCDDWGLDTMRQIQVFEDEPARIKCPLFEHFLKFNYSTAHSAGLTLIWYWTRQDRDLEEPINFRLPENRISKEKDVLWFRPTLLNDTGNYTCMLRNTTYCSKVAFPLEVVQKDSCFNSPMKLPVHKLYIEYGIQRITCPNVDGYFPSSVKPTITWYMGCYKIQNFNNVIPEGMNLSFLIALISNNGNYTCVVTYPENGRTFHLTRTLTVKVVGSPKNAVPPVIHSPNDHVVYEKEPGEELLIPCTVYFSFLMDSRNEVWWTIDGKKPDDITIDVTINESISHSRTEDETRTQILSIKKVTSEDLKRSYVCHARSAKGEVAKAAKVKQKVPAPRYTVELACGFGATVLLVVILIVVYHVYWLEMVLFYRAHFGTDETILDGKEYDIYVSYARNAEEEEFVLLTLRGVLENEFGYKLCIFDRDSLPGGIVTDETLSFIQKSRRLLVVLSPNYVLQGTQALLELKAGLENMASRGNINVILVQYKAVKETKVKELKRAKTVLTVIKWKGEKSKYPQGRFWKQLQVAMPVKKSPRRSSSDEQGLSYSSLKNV
Test: cell-based or functional assay
Below: a set of entries, each annotated with reported functional reporter gene assay (% inhibition), 5 µg/mL mAb.
Kindly provide the numeric value in % only, without the unit symbol.

[
  {
    "Binder": "P013.S.01.B.F02 (antibody, V domains shown, rabbit monoclonal antibody; also called P013.A.00043.D08) VH: QEQLVESGGGLVQPEGSLTLTCTASGFSFSSNYWMCWVRQAPGKGLEWIACIYTGGSGVTYYASWAKGRFTLSKTSSTTVTLQVTSLTAADTATYFCARDLVVVTSFNLWGQGTLVTVSS VL: ALMMTQTPSPVSAAVGGTVTINCQASEDIYSNLAWYQQKPGQPPKLLIYSASTLASGVPSRFSGSGSGTEFTLTISGVQSDDAATYYCLGVCTDISVDDVYNSFGGGTEVVVK",
    "Val": 93
  },
  {
    "Binder": "P013.S.02.B.G02 (antibody, V domains shown, rabbit monoclonal antibody; also called P013.A.00014.C07) VH: QSLEESGGDLVKPGASLTLTCTASGFSLSSGGMTWVRQAPGKGLEWIGYINTGSGRTYYASWAKGRFIISKTSSTTVSLQMTSLTAADTATYFCAGGLPSDLWGPGTLVTVSS VL: DIVMTQTPSSVEAAVGGTVTIKCQASQSINSRLAWYQQKPGQPPKLLIYDASTLASGVSSRFSGSGTEFTLTISDLESADGATYYCLSHYLTSSSSYGNAFGGGTEVVVK",
    "Val": 0
  }
]

Challenge: Let me know recorded functional reporter gene assay (% inhibition), 5 µg/mL mAb for P013.S.02.B.G01 (antibody, V domains shown, rabbit monoclonal antibody; also called P013.A.00015.G07) VH: QSVEESGGRLVTPGGSLTLTCKVSGFSLSDYDIYWVRQAPGKGLEWIGVIDIENSVYYPTWAKGRFTISKTSTTVDLKITSPTTEDTATYFCARGDYIMTLDLWGQGTLVTVSS VL: AAVLTQTPSPVSAAVGGTVTISCQASQSVYKNNRLAWYQQKPGQPPKLLIYLASTLASGVPSRFKGSGSGTQFTLTISDLESDDAATYYCAGGYSTISENAFGGGTEVVVK , thanks.
Response given: -5

Challenge: Let me know recorded functional reporter gene assay (% inhibition), 5 µg/mL mAb for P013.S.01.B.G04 (antibody, V domains shown, rabbit monoclonal antibody; also called P013.A.00013.G06) VH: QSVEESGGRLVTPGTPLTLTCTVSGFSLSVYAMGWFRQAPGKGLEWIGDIYIASDGTWYANWAKGRFTISKTSTTVDLKITSPTTEDTATYFCAREIDAGYVGYGFNLWGQGTLVTVSS VL: AQALTQTPSPVSAAVGGTVTINCQSSQSVYSDYLGWYQQKPGQPPKLLIYWASKLETGVPSRFKGSGSGTQFTLTISGVQSDDAATYYCQATYYGSGWYRAFGGGTEVVVK , thanks.
Response given: 95

Challenge: Let me know recorded functional reporter gene assay (% inhibition), 5 µg/mL mAb for P013.S.02.B.D05 (antibody, V domains shown, rabbit monoclonal antibody; also called P013.A.00086.B09) VH: QQQLVESGGGLVKPGASLTLTCKASGFSFSSGYYMCWVRQAPGKGLEWIACIGMGSGKTYYASWAKGRFTISKTSSTTVTLQMTSLTAADTATYFCARKDGSGNEHYNLWGPGTLVTVSS VL: DIVMTQTPASVEAAVGGTVTIRCQASQSISSYLAWYQRKPGQPPKVLIYKASTLASGVSSRFKGSGSGTEYTLTISDLESADAATYYCQQGYASSGVDNVFGGGTEVVVK , thanks.
Response given: 13
